inhibition at 100 µM values by entry
target: DENV serotype 2 NS2B-NS3 protease (Dengue virus type 2, UniProt P14340); construct: The proteolytic activity of WNV and DENV is located in the N-terminal part of its NS3 protein; made in house; assay: Enzyme kinetic inhibition of DENV-2 NS2B-NS3 protease construct; type: biochemical, Dengue virus serotype 2; conditions: 100 μM inhibitor in the presence of 125 μM substrate; read-out: % Inhib. (DENV)
Sequence (P14340 1476-1653): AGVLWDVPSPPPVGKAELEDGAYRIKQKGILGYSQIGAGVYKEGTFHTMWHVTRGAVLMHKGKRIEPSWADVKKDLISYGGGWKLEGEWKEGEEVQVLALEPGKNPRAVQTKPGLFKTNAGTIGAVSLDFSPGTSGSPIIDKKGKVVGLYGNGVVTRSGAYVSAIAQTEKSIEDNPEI
Sequence (P14340 1398-1437): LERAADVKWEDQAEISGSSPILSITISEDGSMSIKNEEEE
Peptide text beside a SMILES is read from it.

[
  {
    "Molecule": "N=C(N)NCCC[C@H](NC(=O)[C@H](CCCCN)NC(=O)[C@H](CCCCN)NC(=O)Cc1ccccc1)C(=O)NCCCC(N)=O [inhibitor 25] (HELM PEPTIDE1{[O=C(Cc1ccccc1)[*:2]].K.K.R.[O=C(CCCN[*:1])[*:2]].[am]}$$$$V2.0)",
    "inhibition at 100 µM": "26.3%"
  },
  {
    "Molecule": "N=C(N)NCCC[C@H](NC(=O)[C@H](CCCCN)NC(=O)[C@H](CCCCN)NC(=O)Cc1ccc2c(c1)OCO2)C(N)=O [inhibitor 32]",
    "inhibition at 100 µM": "19.9%"
  },
  {
    "Molecule": "CC(C)(C)[C@H](NC(=O)[C@H](CCCNC(=N)N)NC(=O)[C@H](CCCCN)NC(=O)[C@H](CCCCN)NC(=O)Cc1ccccc1)C(N)=O [inhibitor 22] (HELM PEPTIDE1{[O=C(Cc1ccccc1)[*:2]].K.K.R.[CC(C)(C)[C@H](N[*:1])C(=O)[*:2]].[am]}$$$$V2.0)",
    "inhibition at 100 µM": "6.4%"
  },
  {
    "Molecule": "N=C(N)NCCC[C@H](NC(=O)[C@H](CCCCN)NC(=O)[C@H](CCCCN)NC(=O)Cc1cccc(CNC(=N)N)c1)C(N)=O [inhibitor 37]",
    "inhibition at 100 µM": "32.3%"
  },
  {
    "Molecule": "N=C(N)NCCC[C@H](NC(=O)[C@H](CCCCN)NC(=O)[C@H](CCCCN)NC(=O)CC1CCCCC1)C(N)=O [inhibitor 41]",
    "inhibition at 100 µM": "36.7%"
  },
  {
    "Molecule": "N=C(N)NCCC[C@H](NC(=O)[C@H](CCCCN)NC(=O)[C@H](CCCCN)NC(=O)CC12CC3CC(CC(C3)C1)C2)C(N)=O [inhibitor 43]",
    "inhibition at 100 µM": "24.2%"
  },
  {
    "Molecule": "N=C(N)NCCC[C@H](NC(=O)[C@H](CCCCN)NC(=O)[C@H](CCCCN)NC(=O)[C@@H](N)C12CC3CC(CC(C3)C1)C2)C(N)=O [inhibitor 44] (HELM PEPTIDE1{[N[C@H](C(=O)[*:2])C12CC3CC(CC(C3)C1)C2].K.K.R.[am]}$$$$V2.0)",
    "inhibition at 100 µM": "14.6%"
  },
  {
    "Molecule": "N=C(N)NCCC[C@H](NC(=O)[C@H](CCCCN)NC(=O)[C@H](CCCCN)NC(=O)Cc1ccc(Cl)c(Cl)c1)C(=O)NCC(N)=O [inhibitor 30] (HELM PEPTIDE1{[O=C(Cc1ccc(Cl)c(Cl)c1)[*:2]].K.K.R.G.[am]}$$$$V2.0)",
    "inhibition at 100 µM": "45%"
  },
  {
    "Molecule": "N=C(N)NCCC[C@H](NC(=O)[C@H](CCCCN)NC(=O)[C@H](CCCCN)NC(=O)Cc1ccccc1)C(=O)NCC(=O)NCC(N)=O [inhibitor 17] (HELM PEPTIDE1{[O=C(Cc1ccccc1)[*:2]].K.K.R.G.G.[am]}$$$$V2.0)",
    "inhibition at 100 µM": "35.1%"
  },
  {
    "Molecule": "N=C(N)NCCC[C@H](NC(=O)[C@H](CCCCN)NC(=O)[C@H](CCCCN)NC(=O)Cc1ccc(O)cc1)C(N)=O [inhibitor 33]",
    "inhibition at 100 µM": "27.5%"
  },
  {
    "Molecule": "N=C(N)NCCC[C@H](NC(=O)[C@H](CCCCN)NC(=O)[C@H](CCCCN)NC(=O)Cc1cccc(CN)c1)C(N)=O [inhibitor 36]",
    "inhibition at 100 µM": "12.4%"
  },
  {
    "Molecule": "N=C(N)NC1CCC(CNC(=O)C(CCCCN)NC(=O)C(Cc2ccc(CN)cc2)NC(=O)Cc2ccccc2)CC1 (stereo not shown) [inhibitor 3, Phac-Phe(4-AMe)-Lys-GCMA]",
    "inhibition at 100 µM": "12.4%"
  },
  {
    "Molecule": "N=C(N)NCCC[C@H](NC(=O)[C@H](CCCCN)NC(=O)[C@H](CCCCN)NC(=O)Cc1cccc(N)c1)C(N)=O [inhibitor 31]",
    "inhibition at 100 µM": "27.5%"
  },
  {
    "Molecule": "N=C(N)NCCC[C@H](NC(=O)[C@H](CCCCN)NC(=O)[C@H](CCCCN)NC(=O)Cc1ccccc1)C(N)=O [inhibitor 27] (HELM PEPTIDE1{[O=C(Cc1ccccc1)[*:2]].K.K.R.[am]}$$$$V2.0)",
    "inhibition at 100 µM": "20.8%"
  },
  {
    "Molecule": "N=C(N)NCCC[C@H](NC(=O)[C@H](CCCCN)NC(=O)[C@H](CCCCN)NC(=O)Cc1ccccc1)C(=O)NCC(N)=O [inhibitor 18] (HELM PEPTIDE1{[O=C(Cc1ccccc1)[*:2]].K.K.R.G.[am]}$$$$V2.0)",
    "inhibition at 100 µM": "30.7%"
  },
  {
    "Molecule": "CN(CC(N)=O)C(=O)[C@H](CCCNC(=N)N)NC(=O)[C@H](CCCCN)NC(=O)[C@H](CCCCN)NC(=O)Cc1ccccc1 [inhibitor 24] (HELM PEPTIDE1{[O=C(Cc1ccccc1)[*:2]].K.K.R.[Sar].[am]}$$$$V2.0)",
    "inhibition at 100 µM": "3.2%"
  },
  {
    "Molecule": "N=C(N)NCCC[C@H](NC(=O)[C@H](CCCCN)NC(=O)[C@H](CCCCN)NC(=O)Cc1ccccc1)C(=O)N1CCC[C@H]1C(N)=O [inhibitor 23] (HELM PEPTIDE1{[O=C(Cc1ccccc1)[*:2]].K.K.R.P.[am]}$$$$V2.0)",
    "inhibition at 100 µM": "5.2%"
  },
  {
    "Molecule": "CC(C)[C@H](NC(=O)[C@H](CCCNC(=N)N)NC(=O)[C@H](CCCCN)NC(=O)[C@H](CCCCN)NC(=O)Cc1ccccc1)C(N)=O [inhibitor 21] (HELM PEPTIDE1{[O=C(Cc1ccccc1)[*:2]].K.K.R.V.[am]}$$$$V2.0)",
    "inhibition at 100 µM": "12%"
  },
  {
    "Molecule": "N=C(N)NCCC[C@H](NC(=O)[C@H](CCCCN)NC(=O)[C@H](CCCCN)NC(=O)Cc1ccc(CNC(=N)N)cc1)C(N)=O [inhibitor 38]",
    "inhibition at 100 µM": "65%"
  }
]

Entry source: paper PMC6445162
